Target: mouse TAAR1 (Mus musculus (Mouse), UniProt Q923Y8)
Sequence (Q923Y8 whole entry): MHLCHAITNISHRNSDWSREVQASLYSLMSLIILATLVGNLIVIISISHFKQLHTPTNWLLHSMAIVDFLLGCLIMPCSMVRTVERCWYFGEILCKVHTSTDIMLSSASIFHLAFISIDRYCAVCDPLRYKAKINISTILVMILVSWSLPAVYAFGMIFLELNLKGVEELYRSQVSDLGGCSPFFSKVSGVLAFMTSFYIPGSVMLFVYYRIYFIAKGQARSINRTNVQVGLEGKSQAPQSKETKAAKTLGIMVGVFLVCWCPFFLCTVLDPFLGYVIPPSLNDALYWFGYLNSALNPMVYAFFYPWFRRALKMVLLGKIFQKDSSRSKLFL
Experiment: Radioligand binding assay on mouse TAAR1
Details: mouse TAAR1, HEK-293 membranes; first value of the pair (before the slash); read-out: Ki (μM) mouse/rat
Structures can show the parent of a compound that is named as a salt.
Each entry below lists one item and its recorded Ki value.
# number only, unit µM dropped from output

// known answers, use as guide
# Compound, Ki (µM)
records = [
    ("Cc1cc(C(=O)Nc2ccc([C@H]3CNCCO3)c(F)c2)cc(C#N)n1 [Example 115, hydrochloride]", 0.029),
    ("N#Cc1ccc(-n2cc(C(=O)Nc3ccc([C@H]4CNCCO4)cc3F)cn2)cc1 [Example 111, hydrochloride]", 0.0074),
    ("N#Cc1cc(Cl)cc(C(=O)Nc2ccc([C@H]3CNCCO3)c(F)c2)n1 [Example 133, hydrochloride]", 0.0095),
]

Prompt: Fill in the blank: the reported Ki of O=C(Nc1ccc(Cl)cn1)Nc1ccc([C@@H]2CNCCO2)cc1Cl [Example 55] is ____.
Completion: 0.0012

Prompt: Fill in the blank: the reported Ki of COc1cc(C(=O)Nc2ccc([C@H]3CNCCO3)cc2F)cc(C#N)n1 [Example 121, hydrochloride] is ____.
Completion: 0.0145

Prompt: Fill in the blank: the reported Ki of CCOc1ccc(C(=O)Nc2ccc([C@H]3CNCCO3)c(F)c2)cn1 [Example 89, hydrochloride] is ____.
Completion: 0.0024

Prompt: Fill in the blank: the reported Ki of N#Cc1cnc(-n2cc(C(=O)Nc3ccc([C@H]4CNCCO4)c(F)c3)cn2)cn1 [Example 131, hydrochloride] is ____.
Completion: 0.0254

Prompt: Fill in the blank: the reported Ki of N#Cc1cc(NC(=O)Nc2ccc([C@H]3CNCCO3)cc2F)ccc1F [Example 27] is ____.
Completion: 0.0028

Prompt: Fill in the blank: the reported Ki of O=C(Nc1ccc([C@H]2CNCCO2)c(F)c1)c1cnc(C(F)(F)F)cn1 [Example 137, hydrochloride] is ____.
Completion: 0.0067

Prompt: Fill in the blank: the reported Ki of COc1cc(C(=O)Nc2ccc([C@H]3CNCCO3)cc2Cl)cc(C#N)n1 [Example 124, hydrochloride] is ____.
Completion: 0.0235

Prompt: Fill in the blank: the reported Ki of N#Cc1ccc(F)c(NC(=O)Nc2ccc([C@@H]3CNCCO3)cc2F)c1 [Example 56] is ____.
Completion: 0.002

Prompt: Fill in the blank: the reported Ki of O=C(Nc1ccc([C@H]2CNCCO2)c(F)c1)c1ccnc(C(F)(F)F)c1 [Example 87, hydrochloride] is ____.
Completion: 0.0105

Prompt: Fill in the blank: the reported Ki of Cc1nc(C(=O)Nc2ccc([C@H]3CNCCO3)cc2F)ccc1C#N [Example 135, hydrochloride] is ____.
Completion: 0.0105

====

Molecular target: rat TAAR1 (Rattus norvegicus (Rat))
Sequence (Q923Y9 whole entry): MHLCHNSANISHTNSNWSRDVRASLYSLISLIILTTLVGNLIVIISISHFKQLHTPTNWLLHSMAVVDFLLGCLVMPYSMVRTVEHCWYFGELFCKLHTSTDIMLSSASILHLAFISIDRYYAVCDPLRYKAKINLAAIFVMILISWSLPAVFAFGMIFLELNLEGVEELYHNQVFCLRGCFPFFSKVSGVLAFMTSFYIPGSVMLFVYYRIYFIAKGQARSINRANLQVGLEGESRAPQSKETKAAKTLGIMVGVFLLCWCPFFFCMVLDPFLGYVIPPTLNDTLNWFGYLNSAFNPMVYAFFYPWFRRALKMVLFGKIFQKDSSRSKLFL
Test: Radioligand binding assay on rat TAAR1
Details: rat TAAR1, HEK-293 membranes; second value of the pair (line below); read-out: Ki (μM) mouse/rat
Counter-ions that a name gives are not always drawn.
Mark each entry 1.0 if its Ki sits below 0.02 µM, and 0.0 for all others.

// below: answered compounds
# Compound, Assigned class
measured = [
    ("N#Cc1cccc(NC(=O)Nc2ccc(C3CNCCO3)cc2C#N)c1 (racemic) [Example 33]", 0.0),
    ("O=C(Nc1ccc([C@@H]2CNCCO2)cc1Cl)c1ccc(Cl)nc1 [Example 35]", 0.0),
    ("O=C(Nc1ccc([C@H]2CNCCO2)c(F)c1)c1cnn(-c2ccc(C(F)(F)F)nc2)c1 [Example 130, hydrochloride]", 1.0),
    ("O=C(Nc1ccc([C@@H]2CNCCO2)cc1F)c1cnn(-c2ccc(F)cc2)c1 [Example 21]", 1.0),
    ("NC(=O)c1cc(C(=O)Nc2ccc([C@H]3CNCCO3)c(F)c2)cc(Cl)n1 [Example 116, hydrochloride]", 0.0),
]

Prompt: Regarding O=C(Nc1ccc([C@H]2CNCCO2)cc1F)c1cnn(-c2cccc(OC(F)F)c2)c1 [Example 75] , kindly confirm whether its Ki is beneath 0.02 µM.
Completion: 1.0

Prompt: Regarding CCOc1cc(C(=O)Nc2ccc([C@H]3CNCCO3)c(Cl)c2)ccn1 [Example 94, hydrochloride] , kindly confirm whether its Ki is beneath 0.02 µM.
Completion: 0.0

Prompt: Regarding COc1cc(C(=O)Nc2ccc([C@H]3CNCCO3)c(F)c2)cc(C#N)n1 [Example 107, hydrochloride] , kindly confirm whether its Ki is beneath 0.02 µM.
Completion: 1.0

Prompt: Regarding N#Cc1ccc(NC(=O)Nc2ccc([C@@H]3CNCCO3)cc2Br)cn1 [Example 65] , kindly confirm whether its Ki is beneath 0.02 µM.
Completion: 0.0

Prompt: Regarding O=C(Nc1ccc([C@H]2CNCCO2)c(Cl)c1)c1cnn(-c2ccc(OC(F)F)cc2)c1 [Example 96, hydrochloride] , kindly confirm whether its Ki is beneath 0.02 µM.
Completion: 1.0

Prompt: Regarding COc1ccc(C#N)cc1NC(=O)Nc1ccc([C@H]2CNCCO2)cc1Cl [Example 46] , kindly confirm whether its Ki is beneath 0.02 µM.
Completion: 1.0

Prompt: Regarding N#Cc1ccc(OC(F)F)c(NC(=O)Nc2ccc([C@H]3CNCCO3)cc2Cl)c1 [Example 48] , kindly confirm whether its Ki is beneath 0.02 µM.
Completion: 1.0

Prompt: Regarding O=C(Nc1ccc([C@H]2CNCCO2)cc1F)c1ccn(-c2ccc(F)cc2)n1 [Example 13] , kindly confirm whether its Ki is beneath 0.02 µM.
Completion: 1.0

Prompt: Regarding N#Cc1ccc(OC(F)F)c(NC(=O)Nc2ccc([C@H]3CNCCO3)cc2Br)c1 [Example 61] , kindly confirm whether its Ki is beneath 0.02 µM.
Completion: 1.0

Prompt: Regarding N#Cc1cc(NC(=O)Nc2ccc([C@H]3CNCCO3)cc2F)ccc1F [Example 27] , kindly confirm whether its Ki is beneath 0.02 µM.
Completion: 1.0

Prompt: Regarding O=C(Nc1ccc([C@H]2CNCCO2)cc1Cl)c1ccc(Cl)cc1 [Example 34] , kindly confirm whether its Ki is beneath 0.02 µM.
Completion: 0.0

Prompt: Regarding COc1cc(C(=O)Nc2ccc([C@H]3CNCCO3)cc2F)cc(C#N)n1 [Example 121, hydrochloride] , kindly confirm whether its Ki is beneath 0.02 µM.
Completion: 1.0

====

Biological target: mouse TAAR1 (Mus musculus (Mouse))
Assay: Radioligand binding assay on mouse TAAR1
Details: mouse TAAR1, HEK-293 membranes; first value of the pair (before the slash); read-out: Ki (μM) mouse/rat
Where a name gives a salt, the structure may show the parent alone.
Each entry below lists one item and its recorded Ki value.
# number only, unit µM dropped from output

// known answers, use as guide
# Compound, Ki [µM]
measured = [
    ("N#Cc1ccc(OC(F)F)c(NC(=O)Nc2ccc([C@H]3CNCCO3)cc2Br)c1", 0.0018),
    ("O=C(Nc1ccc([C@@H]2CNCCO2)cc1Cl)c1ccc(Cl)nc1", 0.0082),
    ("COc1cc(C(=O)Nc2ccc([C@H]3CNCCO3)c(F)c2)cc(C#N)n1 [Example 107, hydrochloride]", 0.0093),
    ("N#Cc1cccc(NC(=O)Nc2ccc([C@H]3CNCCO3)cc2F)c1", 0.0017),
]

Prompt: Fill in the blank: the reported Ki of O=C(Nc1ccc([C@H]2CNCCO2)cc1F)c1n[nH]c2cc(F)ccc12 is ____.
Completion: 0.0012

Prompt: Fill in the blank: the reported Ki of N#Cc1ccc(NC(=O)Nc2ccc([C@@H]3CNCCO3)cc2Br)cn1 is ____.
Completion: 0.0037

Prompt: Fill in the blank: the reported Ki of O=C(Nc1cnc(C(F)(F)F)nc1)Nc1ccc([C@H]2CNCCO2)cc1Br is ____.
Completion: 0.0086

====

Target: mouse TAAR1 (Mus musculus (Mouse))
Assay: Radioligand binding assay on mouse TAAR1
Details: mouse TAAR1, HEK-293 membranes; first value of the pair (before the slash); read-out: Ki (μM) mouse/rat
Structures can show the parent of a compound that is named as a salt.
Value kind: Ki (µM)
# number only, unit µM dropped from output

# Compound, Test target, Result unit, Ki
records = [
    ("Cc1cc(C(=O)Nc2ccc([C@H]3CNCCO3)cc2F)cc(C(N)=O)n1 [Example 119, hydrochloride]", "mouse TAAR1 (Mus musculus (Mouse))", "µM", 0.0844),
]

Prompt: Fill in the blank: the reported Ki of Cc1cc(C(=O)Nc2ccc([C@H]3CNCCO3)c(Cl)c2)cc(C#N)n1 [Example 112, hydrochloride] is ____.
Completion: 0.0259

Prompt: Fill in the blank: the reported Ki of COc1ccc(C#N)cc1NC(=O)Nc1ccc([C@H]2CNCCO2)cc1Cl is ____.
Completion: 0.0016

Values from patent US9029370B2
